- System Under Test: T1, biotinylated human DLL3 protein expressed as a human IgG1 fusion protein (human, UniProt Q9NYJ7 27-492, limits assumed, biotinylated)
- T1 sequence: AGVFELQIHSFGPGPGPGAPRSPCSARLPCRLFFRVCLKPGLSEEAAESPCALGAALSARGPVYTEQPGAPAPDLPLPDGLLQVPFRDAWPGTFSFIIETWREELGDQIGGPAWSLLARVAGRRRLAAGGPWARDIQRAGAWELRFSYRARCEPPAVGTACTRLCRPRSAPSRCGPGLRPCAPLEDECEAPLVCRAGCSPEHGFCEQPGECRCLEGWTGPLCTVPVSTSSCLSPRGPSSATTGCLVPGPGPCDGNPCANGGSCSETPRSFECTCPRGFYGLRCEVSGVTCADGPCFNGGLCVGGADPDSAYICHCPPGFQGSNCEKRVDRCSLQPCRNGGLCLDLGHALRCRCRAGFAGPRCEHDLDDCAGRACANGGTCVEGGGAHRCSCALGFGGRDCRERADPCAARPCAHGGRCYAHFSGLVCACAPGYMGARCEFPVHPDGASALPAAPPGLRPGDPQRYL
- Assay Text: Octet BLI, single 50 nM
Exercise: for every item that follows, state its recorded pKd.
Reminder that pKd is minus the log10 of a molar concentration.

Annotate the binder 4B05 anti-DLL3 trispecific protein (other, not shown: linker 1808, anti-albumin sdAb, linker 1808, anti-CD3 fragment, His6 1819) EVQLVESGGGLVQPGGSLTLSCAASGSRVSFLSMAWYRQAPGKKRELVAGISADGHTDYIDSVKGRFTISRDNAKNSVYLQMNSLRAEDTAVYYCYAYRWTTRYTHWGQGTLVTVSS with its measured pKd.
7.74

Annotate the binder 4A01 anti-DLL3 trispecific protein (other, not shown: linker 1808, anti-albumin sdAb, linker 1808, anti-CD3 fragment, His6 1819) EVQLVESGGGLVQPGGSLTLSCAASGSSVRFLSMAWYRQAPGKKRELVAGISQDGSTDYIDSVKGRFTISRDNAKNSVYLQMNSLRAEDTAVYYCYAYRWRTRYTYWGQGTLVTVSS with its measured pKd.
8.00
